Attribution: patent US20260365625A1

test system: HepG2 (hepatocellular carcinoma cells); assay: Oxygen consumption rate (OCR) in HepG2 cells, Seahorse XFe96 Extracellular Flux Analyzer; format: cell-based; settings: three concentrations in quadruplicates, average of three independent experiments, read-out: EC50 (concentration that reaches half their maximum effect on OCR)
Result type: pEC50
Answers are plain numbers, as −log10 of the molar value.

pEC50 of O=[N+]([O-])c1ccc(O)c([N+](=O)[O-])c1 , assay on HepG2 (hepatocellular carcinoma cells), is 4.66
